test system: U-251; test: NCI tumour cell line growth inhibition, 48 h
Activity calls are given as the source filed them. Cut-off read from the data, not from the text of the source: active = GI50 up to about 1.1 µM and inactive = higher.
endpoint name: GI50

Asked: // lookup GI50 for `CC[C@@]1(O)C(=O)OCc2c1cc1n(c2=O)Cc2c-1nc1ccccc1c2/C=N\c1ccc(N[C@@H]2c3cc4c(cc3[C@@H](c3cc(OC)c(O)c(OC)c3)[C@H]3C(=O)OC[C@@H]32)OCO4)cc1`
Given back: 0.0904 µM (active)

Asked: And `Cc1cc(C)nc(NS(=O)(=O)c2ccc(NC(=O)c3cccc4c(Nc5ccc(S(N)(=O)=O)cc5)c5ccccc5nc34)cc2)n1` ?
Given back: 8.89 µM (inactive)

Asked: And `CC(=O)O[C@H]1[C@@H](N2CCN(C)CC2)C[C@H]2[C@@H]3CC=C4C[C@@H](N5CCCC5)CC[C@]4(C)[C@H]3CC[C@@]21C` ?
Given back: 50 µM (inactive)

----------
tested on: SK-MEL-28; assay: NCI tumour cell line growth inhibition, 48 h
Active and inactive are the calls of the source. Cut-off read from the data, not from the text of the source: active = GI50 up to about 1.1 µM and inactive = higher.
Hi there, use one of these labels in your reply, thanks! T for active, F for inactive

Asked: What did this assay record as the result for CN(C)CC1CCC(=C2CCCC2)C1=O (stereo unspecified) ?
Given back: F

Asked: And `COC(=O)c1c(C(=O)OC)c2ccccn2c1-c1cc(OC)c(Br)c(=O)o1` ?
Given back: F

Asked: And `Cc1cc2[nH]c(Cl)c(/C=C3\C(=O)Nc4ccccc43)c2cc1O` ?
Given back: F

Asked: And `CC(C)[N+]([O-])(CCCNc1c2ccccc2nc2cccc([N+](=O)[O-])c12)C(C)C` ?
Given back: T

Asked: And CC(=O)C(C(=N)C#N)C(=O)Nc1ccccc1 (stereo unspecified) ?
Given back: F

Asked: And `O=c1cccccc1NCCCCCCNc1cccccc1=O` ?
Given back: F

Asked: And CCCCCCCSCC1OC(n2cnc3c(N)ncnc32)C(O)C1O (stereo unspecified) ?
Given back: F

Asked: And `N#Cc1c(NC(=O)C(F)(F)F)sc2c3c(=O)c4ccccc4c(=O)c=3oc3ccccc3c12` ?
Given back: F

Asked: And `Nc1nc(O)c2ncn([C@H]3CC[C@@H](CO)O3)c2n1` ?
Given back: F

Asked: And COC(=O)C(C(=O)C(=O)Nc1c(C)cccc1C(C)(C)C)c1nc2ccc(Cl)cc2nc1O (stereo unspecified) ?
Given back: F

Asked: And `COC(=O)NN=C1C(C)(C)C(=O)C1(C)C` ?
Given back: F

----------
tested on: SK-MEL-5; assay: NCI tumour cell line growth inhibition, 48 h
Active and inactive are the calls of the source. Rule as the data show it: active = GI50 up to about 1.1 µM and inactive = higher.
So I've got a bunch of compounds here, and I need their GI50 values.

Asked: // lookup GI50 for CC(=O)NC1C(OCc2ccccc2)OC(CO)C(O)C1OCC(=O)N[C@@H](C)C(=O)N[C@H](CCC(=O)NCCNCCNc1c2ccccc2nc2cccc([N+](=O)[O-])c12)C(N)=O (some centres undefined)
Given back: 17.8 µM (inactive)

Asked: And CSC(C1c2ccccc2N(C)c2[nH]c(=O)n(C)c(=O)c21)S(=O)(=O)c1ccc(C)cc1 (centres undefined) ?
Given back: > 100 µM (inactive)

Asked: And Cc1c(-c2ccccc2)n[nH]c1NC1(C)C(=O)N(/N=C/c2ccccc2)N=C1c1ccccc1 (centres undefined) ?
Given back: 7.96 µM (inactive)

Asked: And `COc1cc(OC)cc(Oc2nc3c(N)cc(C(F)(F)F)cc3nc2-c2ccccc2)c1` ?
Given back: 37.3 µM (inactive)

----------
test system: UACC-62; experiment: NCI tumour cell line growth inhibition, 48 h
Activity calls are given as the source filed them. Cut-off read from the data, not from the text of the source: active = GI50 up to about 1.1 µM and inactive = higher.
Hi there, use one of these labels in your reply, thanks! y = active, n = inactive

Asked: What did this assay record as the result for CN(C)CC1CCC(=C2CCCC2)C1=O (configuration not stated) ?
Given back: n

Asked: And C=C1C(=O)O[C@H]2C[C@@]3(COC(C)=O)C=COC=C(COC(=O)C(C)C)C3CC12 (some centres not stated) ?
Given back: n

Asked: And `COC(=O)[C@H](Cc1ccccc1)NC(=O)/C(=C/C(C)C)NC(=O)[C@H](CCSC)NC=O` ?
Given back: n

Asked: And COC(=N)c1csc(C2OC(CO)C(O)C2O)n1 (configuration not stated) ?
Given back: n

Asked: And O=C(Cc1ccccc1)NN1C(=O)C(Cl)C1c1ccc(Cl)cc1 (configuration not stated) ?
Given back: n

Asked: And `CC1(C)[C@@H](Cn2cnc3c(O)nc(N)nc32)CC[C@@]1(C)CO` ?
Given back: n

Asked: And CCN(CC)CCC(=O)O[C@H]1CC[C@H](CC(C)[C@H]2CC(=O)C(C)C=C(C)[C@H](OC(=O)CCN(CC)CC)C(OC)C(=O)[C@@H](C)CC(C)/C=C/C=C/C=C(C)C(OC)CC3CC[C@H](C)[C@](O)(O3)C(=O)C(=O)N3CCCCC3C(=O)O2)CC1OC (some centres not stated) ?
Given back: y

Asked: And `C=C1[C@@H]([C@@]2(C)C=CC(=O)C(C)(C)[C@@H]2CC(=O)OC)CC[C@@]2(C)[C@H](c3ccoc3)OC(=O)[C@H]3O[C@]132` ?
Given back: n

Asked: And `CC[C@@]1(O)C(=O)OCc2c1cc1n(c2=O)Cc2c-1nc1ccccc1c2/C=N\c1ccc(N[C@@H]2c3cc4c(cc3[C@@H](c3cc(OC)c(O)c(OC)c3)[C@H]3C(=O)OC[C@@H]32)OCO4)cc1` ?
Given back: y

Asked: And `COc1c(-c2nc3ccc(N4CCN(C)CC4)nc3[nH]2)cc(OC)c2c1nc(CO)n2C` ?
Given back: n

Asked: And `O=c1cc[nH]c2c1ccc1ncccc12` ?
Given back: n

Asked: And `CCOP(=O)(OCC)/C(C#N)=C/c1ccco1` ?
Given back: n

----------
system: SF-268; test: NCI tumour cell line growth inhibition, 48 h
Activity calls are given as the source filed them. Cut-off read from the data, not from the text of the source: active = GI50 up to about 1.1 µM and inactive = higher.
endpoint name: GI50

Asked: // map `N#Cc1c(-c2ccccc2)[nH]c2ccc(Cl)cc2c1=O` to recorded GI50 (system: SF-268)
Given back: 36.1 µM (inactive)

Asked: And `O=C(/C=C1\Nc2ccccc2N\C1=C/C(=O)c1ccc(F)cc1)c1ccc(F)cc1` ?
Given back: > 100 µM (inactive)

Asked: And CC(=O)O[C@H](C[C@@H](C)[C@H]1C(=O)[C@H](O)[C@@]2(C)C3CC[C@H]4C(C)(C)[C@@H](OC5OCC(O)C(O)C5O)CC[C@@]45C[C@@]35CC[C@]12C)[C@@H]1OC1(C)C (some centres undefined) ?
Given back: 20.7 µM (inactive)

Asked: And C=C1[C@@H]([C@@]2(C)C=CC(=O)C(C)(C)[C@@H]2CC(=O)OC)CC[C@@]2(C)[C@H](c3ccoc3)OC(=O)[C@H]3O[C@]132 [ANDIROBIN] ?
Given back: > 100 µM (inactive)

Asked: And NCC1OC(n2cnc3c(N)ncnc32)CC1O (centres undefined) ?
Given back: > 100 µM (inactive)

Asked: And `O=C1/C(=C/c2ccc(Br)s2)NC(=S)N1CN1CCCCC1` ?
Given back: 39.4 µM (inactive)

Asked: And CCC(c1ccc(N(C)C)cc1)C1NC(=S)NC1=O (centres undefined) ?
Given back: > 100 µM (inactive)

Asked: And `NC(=O)NC(=O)c1ccc(NC(=O)CBr)cc1` ?
Given back: 1.4 µM (inactive)

Asked: And `O=c1c2ccccc2nc(-c2ccccc2)n1NC(=S)Nc1cccc(Cl)c1` ?
Given back: 43.7 µM (inactive)

----------
system: RXF 393; test: NCI tumour cell line growth inhibition, 48 h
The source made the active and inactive calls. Cut-off read from the data, not from the text of the source: active = GI50 up to about 1.1 µM and inactive = higher.
endpoint name: GI50

Asked: // lookup GI50 for `COc1ccc(CN2C[C@H]3[C@@H](CC(=O)O[C@H]3C)CC2=O)cc1`
Given back: > 100 µM (inactive)

Asked: And `CCCNC(=O)c1cc(NC(=O)c2cc(NC(=O)CCS(=O)(=O)OC)cn2C)cn1C` ?
Given back: 14.4 µM (inactive)

Asked: And `N=C(N)NS(=O)(=O)c1ccc(NNc2c3ccccc3nc3c(C(=O)Nc4ccc(S(N)(=O)=O)cc4)cccc23)cc1` ?
Given back: 40.6 µM (inactive)

Asked: And `NS(=O)(=O)c1ccc(/C=C/c2cccc(O)c2)cc1` ?
Given back: > 100 µM (inactive)

Asked: And `CCCn1c(=O)c2ccccc2[n+]2c(-c3ccc([N+](=O)[O-])cc3)csc12` ?
Given back: 18.1 µM (inactive)

----------
test system: HOP-18; assay: NCI tumour cell line growth inhibition, 48 h
The source made the active and inactive calls. Rule as the data show it: active = GI50 up to about 1.1 µM and inactive = higher.
So I've got a bunch of compounds here, and I need their GI50 values.

Asked: // map COC(=O)C1=C(OC)c2cc3c(cc2C(c2cc(OC)c(OC)c(OC)c2)C1C(=O)OC)OCO3 (stereo not given) to recorded GI50 (system: HOP-18)
Given back: > 100 µM (inactive)

Asked: And COc1cc([C@@H]2c3cc4c(cc3[C@@H](NC(=O)c3ccc(C#N)cc3)C3COC(=O)[C@@H]32)OCO4)cc(OC)c1O (stereo not given in full) ?
Given back: 55.1 µM (inactive)

Asked: And `O=C1c2ccccc2C(Br)(Br)c2ccccc21` ?
Given back: > 31.6 µM (inactive)

Asked: And `O=C(/C=N/c1ccccc1C(=O)[O-])c1cccs1.O=C(/C=N/c1ccccc1C(=O)[O-])c1cccs1.[Zn+2]` ?
Given back: > 100 µM (inactive)

Asked: And `O=c1cc[nH]c2c1ccc1ncccc12` ?
Given back: > 100 µM (inactive)

Asked: And `O=C1c2ccccc2CCCCCCCCCCC12OCCCO2` ?
Given back: 47.9 µM (inactive)

Asked: And `CC#N.O[C@@H]1CCCC[C@@H]1O.O[C@@H]1CCCC[C@@H]1O.[TeH2]` ?
Given back: 27.5 µM (inactive)

Asked: And COC(=O)CCC(NC(=S)N/N=C/c1ccco1)C(=O)OC (stereo not given) ?
Given back: > 100 µM (inactive)

Asked: And `CCOC(=O)c1c(-c2ccccc2)oc(-c2ccccc2)c1C(=O)OCC` ?
Given back: > 100 µM (inactive)

Asked: And `O=c1cccccc1NCCCCCCNc1cccccc1=O` ?
Given back: > 100 µM (inactive)
